Data origin: patent US20250188092A1

# maps each entry to its hPXR Fold Act. (lucif) @ 6.25 μM
- ASSAY SYSTEM: human pregnane X receptor (hPXR) (Homo sapiens, UniProt O75469)
- Sequence (O75469 1-434): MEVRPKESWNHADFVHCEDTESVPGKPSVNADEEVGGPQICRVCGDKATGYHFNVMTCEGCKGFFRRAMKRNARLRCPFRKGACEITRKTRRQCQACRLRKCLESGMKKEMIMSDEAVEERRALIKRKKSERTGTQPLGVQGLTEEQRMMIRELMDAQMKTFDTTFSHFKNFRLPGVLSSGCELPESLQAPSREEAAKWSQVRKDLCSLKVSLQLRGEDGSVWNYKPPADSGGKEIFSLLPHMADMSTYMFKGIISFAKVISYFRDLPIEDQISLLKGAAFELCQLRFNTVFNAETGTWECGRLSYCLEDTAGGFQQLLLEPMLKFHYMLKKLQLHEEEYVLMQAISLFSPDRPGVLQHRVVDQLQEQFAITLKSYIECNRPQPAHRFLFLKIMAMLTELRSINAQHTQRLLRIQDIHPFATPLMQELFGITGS
Field: numeric (fold). Do not append units.

# example entries with known answers
>>> reported_result("CO[C@H]1/C=C/O[C@@]2(C)Oc3c(C)c(O)c4c(=O)c(c5oc6cc(N7CCN(C(=O)c8cccc(-c9ccccn9)c8)CC7)cc(OCc7ccc(CN8CCOCC8)cc7)c6nc-5c4c3C2=O)NC(=O)/C(C)=C\\C=C\\[C@H](C)[C@H](O)[C@@H](C)[C@@H](O)[C@@H](C)[C@H](OC(C)=O)[C@@H]1C [Compound 17r]")
1
>>> reported_result("CO[C@H]1/C=C/O[C@@]2(C)Oc3c(C)c(O)c4c(=O)c(c5oc6cc(C)cc(N7CCN(C)CC7)c6nc-5c4c3C2=O)NC(=O)/C(C)=C\\C=C\\[C@H](C)[C@H](O)[C@@H](C)[C@@H](O)[C@@H](C)[C@H](OC(C)=O)[C@@H]1C [Compound 30a]")
4.6
>>> reported_result("CO[C@H]1/C=C/O[C@@]2(C)Oc3c(C)c(O)c4c(=O)c(c5oc6cc(N7CCC(CC(=O)O)CC7)cc(N7CCC(CC(=O)O)CC7)c6nc-5c4c3C2=O)NC(=O)/C(C)=C\\C=C\\[C@H](C)[C@H](O)[C@@H](C)[C@@H](O)[C@@H](C)[C@H](OC(C)=O)[C@@H]1C [Compound 17v]")
1.2

**Query** Any idea what its hPXR Fold Act. (lucif) @ 6.25 μM is? The molecule is CO[C@H]1/C=C/O[C@@]2(C)Oc3c(C)c(O)c4c(=O)c(c5oc6cc(N7CCC(CC(=O)O)CC7)cc(OCc7ccc(CN8CCOCC8)cc7)c6nc-5c4c3C2=O)NC(=O)/C(C)=C\C=C\[C@H](C)[C@H](O)[C@@H](C)[C@@H](O)[C@@H](C)[C@H](OC(C)=O)[C@@H]1C [Compound 17l]
**Result** 1.1

* * *

- ASSAY SYSTEM: E. coli S531L (RIF^R) RNAP (Escherichia coli, UniProt P0A8V2, S531L)
- ASSAY OVERVIEW: biochemical
MEASURED METRIC: pIC50
// scale note: pIC50 = -log10(conc_M); give the bare number

**Query** Looking for the measured pIC50 of "CO[C@H]1/C=C/O[C@@]2(C)Oc3c(C)c(O)c4c(=O)c(c5oc6cc(C=Nc7ccc(N8CCOCC8)cc7)cc(N7CCN(C)CC7)c6nc-5c4c3C2=O)NC(=O)/C(C)=C\C=C\[C@H](C)[C@H](O)[C@@H](C)[C@@H](O)[C@@H](C)[C@H](OC(C)=O)[C@@H]1C" , can you help?
**Result** 3.48
